Experimental endpoint: melting point

Observe how each entry below is paired with its result.
>  <Compound structure string>
O=C(CCc1ccc(F)cc1)Oc1ccc(-c2cc(=O)c3ccccc3o2)cc1

>  <Experimental endpoint>
melting point

>  <Experimental result>
103 to 104 °C

$$$$
>  <Compound structure string>
O=C(CCc1ccc(Cl)cc1)Oc1ccc(-c2cc(=O)c3ccccc3o2)cc1

>  <Experimental endpoint>
melting point

>  <Experimental result>
112 to 114 °C

$$$$
>  <Compound structure string>
O=C(CCc1ccc(Br)cc1)Oc1ccc(-c2cc(=O)c3ccccc3o2)cc1

>  <Experimental endpoint>
melting point

>  <Experimental result>
127 to 129 °C

$$$$
>  <Compound structure string>
Cc1ccc(CCC(=O)Oc2ccc(-c3cc(=O)c4ccccc4o3)cc2)cc1

>  <Experimental endpoint>
melting point

>  <Experimental result>
135 to 136 °C

$$$$
>  <Compound structure string>
O=C(CCc1ccccc1)Oc1ccc(-c2cc(=O)c3ccccc3o2)cc1

>  <Experimental endpoint>
melting point

>  <Experimental result>
133 to 134 °C

$$$$

Shift focus to the following entry.
Lookup: Fill blank: measured melting point of the compound O=C(CCc1ccc(C(F)(F)F)cc1)Oc1ccc(-c2cc(=O)c3ccccc3o2)cc1 is ____.
Found: 250 to 251 °C
